Values compiled from patent US10064928B2.

# testedTarget: HLA-A*02:01 (Homo sapiens, UniProt P04439, D140Y/D185E/D98H/E176V/E277Q/G131W/G231S/I119V/I121R/I166T/I218V/L300P/L318F/N151K/N90K/P208A/P217A/Q86G/Q94H/R138H/R169H/T345S)
# assayMethodText: MHC binding assay (UV-ligand exchange, beta2m ELISA)
# testSettings: binding of HLA-class I restricted peptides to HLA-A*02:01, β2m ELISA
reportedProperty: Peptide Exchange (MHC class I binding score, peptide exchange yield)

The examples below pair each entry with its known result.
7 (ALLERTGYTL; listed as Homo sapiens) [compound 7]	“+++” (≥50 = +++)
322 (SLASIHVPL; listed as Homo sapiens) [compound 322]	“+++” (≥50 = +++)
223 (ALWVSQPPEI; listed as Homo sapiens) [compound 223]	“+++” (≥50 = +++)
158 (SLPEAPLDV; listed as Homo sapiens) [compound 158]	“+++” (≥50 = +++)
31 (ELMHGVAGV; listed as Homo sapiens) [compound 31]	“+++” (≥50 = +++)
315 (LVYEAPETV; listed as Homo sapiens) [compound 315]	“+++” (≥50 = +++)
163 (SQLDISEPYKV; listed as Homo sapiens) [compound 163]	“+++” (≥50 = +++)
377 (VVDGTCVAV; listed as Homo sapiens) [compound 377]	“+++” (≥50 = +++)

Turning now to a further substance:
Exam item: // Peptide Exchange (MHC class I binding score, peptide exchange yield) lookup, key: 62 (GIIDGSPRL; listed as Homo sapiens) [compound 62]
Marked response: “+++” (≥50 = +++)

====

# testedTarget: HLA-A*02:01 (Homo sapiens, UniProt P04439, D140Y/D185E/D98H/E176V/E277Q/G131W/G231S/I119V/I121R/I166T/I218V/L300P/L318F/N151K/N90K/P208A/P217A/Q86G/Q94H/R138H/R169H/T345S)
# assayMethodText: MHC binding assay (UV-ligand exchange, beta2m ELISA)
# testSettings: binding of HLA-class I restricted peptides to HLA-A*02:01, β2m ELISA
# Source text: Candidate peptides for T cell based therapies according to the present invention were further tested for their MHC binding capacity (affinity). The individual peptide-MHC complexes were produced by UV-ligand exchange, where a UV-sensitive peptide is cleaved upon UV-irradiation, and exchanged with the peptide of interest as analyzed. Only peptide candidates that can effectively bind and stabilize the peptide-receptive MHC molecules prevent dissociation of the MHC complexes. […]
reportedProperty: Peptide Exchange (MHC class I binding score, peptide exchange yield)

200 (YMFEEVPIVI; listed as Homo sapiens) [compound 200]	“++++” (≥75% = ++++)
194 (YLDNVLAEL; listed as Homo sapiens) [compound 194]	“++++” (≥75% = ++++)
326 (VLAFLVHEL; listed as Homo sapiens) [compound 326]	“++++” (≥75% = ++++)

====

# testedTarget: HLA-A*02:01 (Homo sapiens, UniProt P04439, D140Y/D185E/D98H/E176V/E277Q/G131W/G231S/I119V/I121R/I166T/I218V/L300P/L318F/N151K/N90K/P208A/P217A/Q86G/Q94H/R138H/R169H/T345S)
# assayMethodText: MHC binding assay (UV-ligand exchange, beta2m ELISA)
# testSettings: binding of HLA-class I restricted peptides to HLA-A*02:01, β2m ELISA
reportedProperty: Peptide Exchange (MHC class I binding score, peptide exchange yield)

156 (SLNIGDVQL; listed as Homo sapiens) [compound 156]	“+++” (≥50 = +++)
193 (YLDLSNNRL; listed as Homo sapiens) [compound 193]	“+++” (≥50 = +++)
93 (ILFNTQINI; listed as Homo sapiens) [compound 93]	“+++” (≥50 = +++)
185 (VMDDQRDLI; listed as Homo sapiens) [compound 185]	“++” (≥20% = ++)
356 (FLHDHQAEL; listed as Homo sapiens) [compound 356]	“++” (≥20% = ++)
304 (LAIVPVNTL; listed as Homo sapiens) [compound 304]	“+” (≥10% = +)
41 (FLDPSLDPLL; listed as Homo sapiens) [compound 41]	“+++” (≥50 = +++)
68 (GLDQQFAGLDL; listed as Homo sapiens) [compound 68]	“+” (≥10% = +)

Exam item: // Peptide Exchange (MHC class I binding score, peptide exchange yield) lookup, key: 17 (ALTKTNLQL; listed as Homo sapiens) [compound 17]
Marked response: “+++” (≥50 = +++)
